Recorded Mean % WT Binding, one value per entry.
- Assay System: human CD33 S178A (human, UniProt P20138 18-364)
- Sequence (P20138 18-364 S178A limits assumed): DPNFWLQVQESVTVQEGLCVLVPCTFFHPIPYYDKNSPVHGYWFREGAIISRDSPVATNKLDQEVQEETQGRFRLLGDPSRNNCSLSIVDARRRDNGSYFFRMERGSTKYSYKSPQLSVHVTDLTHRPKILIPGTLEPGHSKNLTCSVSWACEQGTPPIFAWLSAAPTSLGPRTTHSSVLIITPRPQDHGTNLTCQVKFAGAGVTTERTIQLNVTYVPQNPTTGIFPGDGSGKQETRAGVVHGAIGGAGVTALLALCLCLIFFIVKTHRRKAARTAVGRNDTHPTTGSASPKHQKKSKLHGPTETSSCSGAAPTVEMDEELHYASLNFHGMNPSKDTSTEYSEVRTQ
- Experimental Details: alanine scan, flow cytometry, HEK293-T;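 also: antibody binding to each alanine-substituted CD33 mutant expressed transiently in HEK293-T, read as fluorescence minus background, mean of duplicates, relative to wild-type CD33 set as 100%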

# Binder, Unit Annotation, Mean % WT Binding
data = [
    ("Refmab #1 (antibody, V domains shown, In the alanine scan antibodies were used as IgG or Fab; also called hP67.6) VH: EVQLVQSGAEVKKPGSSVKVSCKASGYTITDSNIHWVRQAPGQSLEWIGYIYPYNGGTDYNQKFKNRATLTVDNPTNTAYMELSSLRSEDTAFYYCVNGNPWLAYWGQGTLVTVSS VL: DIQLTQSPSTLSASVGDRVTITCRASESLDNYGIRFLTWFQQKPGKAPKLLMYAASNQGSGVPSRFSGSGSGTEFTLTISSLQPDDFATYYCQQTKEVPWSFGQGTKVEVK", "%", 94),
    ("Refmab #2 (antibody, V domains shown, In the alanine scan antibodies were used as IgG or Fab) VH: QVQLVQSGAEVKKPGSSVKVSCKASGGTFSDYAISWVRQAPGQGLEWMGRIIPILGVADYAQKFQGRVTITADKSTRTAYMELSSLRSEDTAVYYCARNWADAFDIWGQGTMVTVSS VL: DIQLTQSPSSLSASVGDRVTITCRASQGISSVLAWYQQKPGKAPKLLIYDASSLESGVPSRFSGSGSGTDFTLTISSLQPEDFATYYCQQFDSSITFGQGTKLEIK", "%", 113),
    ("Refmab #4 (antibody, V domains shown, In the alanine scan antibodies were used as IgG or Fab) VH: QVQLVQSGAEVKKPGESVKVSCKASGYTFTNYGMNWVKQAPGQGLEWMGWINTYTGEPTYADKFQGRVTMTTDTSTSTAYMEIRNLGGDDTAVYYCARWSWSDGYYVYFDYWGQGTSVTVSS VL: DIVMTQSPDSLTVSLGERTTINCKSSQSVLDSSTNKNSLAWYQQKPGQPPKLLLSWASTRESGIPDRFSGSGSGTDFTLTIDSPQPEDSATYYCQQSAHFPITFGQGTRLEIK", "%", 101),
    ("Refmab #3 (antibody, V domains shown, In the alanine scan antibodies were used as IgG or Fab) VH: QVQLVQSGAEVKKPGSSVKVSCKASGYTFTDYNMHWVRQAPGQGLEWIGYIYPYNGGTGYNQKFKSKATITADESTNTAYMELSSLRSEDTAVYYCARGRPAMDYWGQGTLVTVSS VL: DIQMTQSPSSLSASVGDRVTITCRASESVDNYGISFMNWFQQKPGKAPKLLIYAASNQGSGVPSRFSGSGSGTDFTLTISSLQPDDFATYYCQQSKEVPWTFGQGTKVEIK", "%", 112),
]
